Can you tell me glycan array binding signal (z-score) for the items I'm about to list?
biological target: Neu5Ac(a2-3)[GalNAc(b1-4)]Gal(b1-4)GlcNAc; assay: glycan array binding signal (z-score within array); higher = stronger binding; conditions: glycan notation: IUPAC condensed, linker removed
About 410 targets per protein were measured; listed, in parts, are those with the strongest signals and a random draw of the rest.
Lab note: record just the number, no unit beside it.

So what does the record say about glycan array binding signal (z-score) for NKp30 (Homo sapiens), O14931 (protein) LWVSQPPEIRTLEGSSAFLPCSFNASQGRLAIGSVTWFRDEVVPGKEVRNGTPEFRGRLAPLASSRFLHDHQAELHIRDVRGHDASIYVCRVEVLGLGVGTGNGTRLVVEKEHPQLG ?
-0.354

Which glycan array binding signal (z-score) value is on record for LFA (Limax flavus) (protein) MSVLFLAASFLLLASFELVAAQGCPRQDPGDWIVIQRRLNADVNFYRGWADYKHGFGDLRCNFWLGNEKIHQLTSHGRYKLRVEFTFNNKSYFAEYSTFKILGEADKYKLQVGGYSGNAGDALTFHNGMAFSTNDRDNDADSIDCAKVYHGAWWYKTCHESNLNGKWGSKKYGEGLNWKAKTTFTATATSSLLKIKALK ?
0.019

Consider the binder shown here: Nictaba (Nicotiana tabacum), Q94EW1 (protein) MQGQWIAARDLSITWVDNPQYWTWKTVDPNIEVAELRRVAWLDIYGKIETKNLIRKTSYAVYLVFKLTDNPRELERATASLRFVNEVAEGAGIEGTTVFISKKKKLPGELGRFPHLRSDGWLEIKLGEFFNNLGEDGEVEMRLMEINDKTWKSGIIVKGFDIRPN What is its recorded glycan array binding signal (z-score)?
-0.269

For Nc3LysM (protein) QFTVPPDTTAEPNTIKTCTWWHVAGSGDSCTSIASTYGITSEQFARWDMETTDSPKNPSVATACKLTVGNSYCIENNFGQDDPPTPSISSSTLIGTATTSTTASTTTGNGISTPTPIQEGMETATTTTSSGNGITTPTPTQAGMETVGNCDRFHLVKSGDQCGTIASTYGITLANFYSWNPAVGTSCQSLWLDTYVCVRTIGFVPPKTTTTTTKKPTSTTSAGGVATPTPTQPGMETVSGCKKFHKGRGNVSTVASGDQCGTIATRYGISLANFYSWNPAVGSSCQTLWLDYYVCVGR , what is its reported glycan array binding signal (z-score)?
-0.172

Reported glycan array binding signal (z-score) for DC-SIGN (Canis lupus), XP_853402 (protein) AGLCRPCPWKWELFQESCYFFSQTQNTWKESISACQNLRAQLVIINSTEEQKFLKSWNTRNNQRTWIGLSDHHNEGSWKWVDNTPLQLSFWKEGEPNNHGDEDCVELYSDGWNDNRCSTENFWICKKPSSPCPGPGLNDIFEAQKIEWHE : what is it?
-0.085

Report glycan array binding signal (z-score) for Hip/Pap (Homo sapiens), Q06141 (protein) MLPPMALPSVSWMLLSCLMLLSQVQGEEPQRELPSARIRCPKGSKAYGSHCYALFLSPKSWTDADLACQKRPSGNLVSVLSGAEGSFVSSLVKSIGNSYSYVWIGLHDPTQGTEPNGEGWEWSSSDVMNYFAWERNPSTISSPGHCASLSRSTAFLRWKDYNCNVRLPYVCKFTD please.
-0.173
